The values you see were collected from the supplement of paper PMC4466140.

- testedSystem: AgCyk3
- procedureSummary: SPOT peptide array binding signal intensity (averaged, normalized) (arbitrary units (background-subtracted, floor 0; scale differs between SH3 domains)); higher = stronger binding of the SH3 domain to the peptide
readoutType: SPOT peptide array binding signal intensity
Number only, please.

Below, 3 binders whose answers are already recorded.
binder	quantitativeReadout
SKAKRPKFLLDLQIK	10
LPPPPPPPPPPPLPQ	1
MSPLGAPPPPPHKDH	1

# input binder: RSVKRPRRAPRPVVS ; wanted: its SPOT peptide array binding signal intensity
2

# input binder: EREKALPPIPFTTTL ; wanted: its SPOT peptide array binding signal intensity
2

# input binder: MARRRLPDRPPNGIG ; wanted: its SPOT peptide array binding signal intensity
16
